Data provenance is ChEMBL document CHEMBL4049432.

# Lookup of reported logD keyed by entry
- Method: Octanol-aqueous phosphate buffer distribution coefficient, log D of the compound at pH 7.4
- Format: physicochemical

Study these solved cases before continuing.
- Compound Smiles: "O=C1NCCc2[nH]c(-c3ccnc(NC4CCOCC4)n3)cc21"
  Experimental Result: 1.3
- Compound Smiles: "COCCN1C(=O)c2cc(-c3nc(Nc4ccnn4C)ncc3C)[nH]c2C[C@@H]1C"
  Experimental Result: 2.11
- Compound Smiles: "COCCN1CCn2cc(-c3nc(Nc4ccnn4C)ncc3C)cc2C1=O"
  Experimental Result: 1.3
- Compound Smiles: "COCCN1CCc2c(cc(-c3ccnc(NC4CCOCC4)n3)n2C)C1=O"
  Experimental Result: 1.7

Q) GET /values?readout=logD&item= CN1CCc2[nH]c(-c3ccnc(NC4CCOCC4)n3)cc2C1=O
A) 1.6
